# tgt: T1, hANGPTL3(17-460)-His (human, UniProt Q9Y5C1 17-460)
# T1 construct: Bought protein (R&D Systems); also called full-length mature human ANGPTL3 with a C-terminal decahistidine tag; Human ANGPTL3 (17-460)-His
# T1 sequence: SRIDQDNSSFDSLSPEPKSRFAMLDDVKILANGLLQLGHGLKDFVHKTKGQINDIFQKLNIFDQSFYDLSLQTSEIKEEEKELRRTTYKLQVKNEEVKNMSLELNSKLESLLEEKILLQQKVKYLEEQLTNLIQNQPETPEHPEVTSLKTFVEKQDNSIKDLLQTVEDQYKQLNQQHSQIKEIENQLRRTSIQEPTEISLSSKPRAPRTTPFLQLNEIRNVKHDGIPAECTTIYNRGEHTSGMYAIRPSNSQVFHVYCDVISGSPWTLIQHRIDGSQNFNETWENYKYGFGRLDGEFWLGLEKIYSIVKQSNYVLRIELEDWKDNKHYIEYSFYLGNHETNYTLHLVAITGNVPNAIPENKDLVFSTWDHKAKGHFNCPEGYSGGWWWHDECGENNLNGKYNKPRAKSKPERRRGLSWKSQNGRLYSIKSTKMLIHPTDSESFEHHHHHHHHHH
# measurement protocol: SPR Biacore, antigen captured, 25C, pH 7.4, HBS-EP
property name: kon (M⁻¹ s⁻¹)
Express your answer in M⁻¹ s⁻¹, writing the number without its unit.

H4H1296P (antibody, IgG4, V domains shown) VH: QVQLVESGGVSVKPGGSLRLSCAASGFTFSDYYMSWIRQAPGKGLEWVSYIGSSGTNDYYADSVKGRFTISRDNAKNSLYLQMDSLRAEDTAVYYCARDSSQMGFDYWGQGTLVTVSS VL: DIQMTQSPSSLSASVGDRVTITCRASQNIINFLNWYQQRPGKAPQLLIYVAASLQSGVPSRFTGSGYGTDFTLTISSLQPEDFATYYCQQTYTNPLTFGGGTKVEIKR | 301000
H4H1250P (antibody, IgG4, V domains shown) VH: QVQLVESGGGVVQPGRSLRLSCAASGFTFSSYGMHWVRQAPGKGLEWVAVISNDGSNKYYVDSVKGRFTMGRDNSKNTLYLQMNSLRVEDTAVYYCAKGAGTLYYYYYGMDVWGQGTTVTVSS VL: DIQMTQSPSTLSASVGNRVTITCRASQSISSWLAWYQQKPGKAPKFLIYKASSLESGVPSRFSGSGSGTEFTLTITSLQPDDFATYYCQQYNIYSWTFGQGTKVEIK | 904000
H4H1282P (antibody, IgG4, V domains shown) VH: EVQLVQSGGGVVQPGRSLRLSCAASGFTFSNYGMHWVRQAPGKGLEWVAVVWYDGDNKYYADSVKGRFTISRDNSKNTLYLQMNSLRAEDTAVYYCARDIITSRPTLDYWGQGTLVTVSS VL: DIQLTQSPSFLSASVGDRVTITCWASQGINSYLAWYQQKPGKAPKLLIYPASTLQSGVPSRFSGSGSGTEFTLTISSLQPVDFATYYCQQLNSYPLTFGGGTKVEIKR | 957000
H4H1248P (antibody, IgG4, V domains shown) VH: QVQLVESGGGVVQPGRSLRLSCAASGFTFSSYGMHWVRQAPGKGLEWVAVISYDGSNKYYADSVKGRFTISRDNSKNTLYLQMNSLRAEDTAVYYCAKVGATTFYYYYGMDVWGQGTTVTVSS VL: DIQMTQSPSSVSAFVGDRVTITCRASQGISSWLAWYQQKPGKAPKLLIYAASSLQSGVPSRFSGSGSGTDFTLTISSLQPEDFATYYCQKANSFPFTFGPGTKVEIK | 440000

Switching to the query record.
Note to self: kon recorded for H4H1268S (antibody, IgG4, V domains shown) VH: QVQLQQSGPGLVKPSQTLSLTCAISGDSVSSNSPAWNWIRQSPSRGLEWLGRTYYRSKWYNDYAVSVRGRITINPDTSNNQFSLHLNSVTPEDTAMYYCARDKGLTARPTYFDYWGQGTLVTVSS VL: DIQMTQSPSTLSASVGDRVTITCRASQSINYWLAWYQQKPGKAPKPLIYKASSLESGVPSRFSGSGSGTEFTLTISSLQPDDFTTYYCQQYNSYSPTFGQGTKLEIKR was 1.29e+06
